Test system: 898857-211-R-J1-PDC complex spheroids, growth % test/control
Assay: Anticancer human tumor 898857-211-R-J1-PDC patient-derived melanoma cell line growth inhibition [RAS]
Conditions: curve of first compound; second compound 0.000949 µM
measure.name: IC50

compound	measured.target	measure.name	reported
Cc1nc(N2CCC3(CC2)COC(C)C3N)c(CO)nc1Sc1ccnc(N)c1Cl (stereo not drawn) + CCn1c(-c2cc(N3CCN(C)CC3)cnc2C(C)OC)c2c3cc(ccc31)-c1csc(n1)CC(NC(=O)C1CC1C)C(=O)N1CCCC(N1)C(=O)OCC(C)(C)C2	898857-211-R-J1-PDC complex spheroids, growth % test/control	IC50	> 10 µM
Cc1nc(N2CCC3(CC2)COC(C)C3N)c(CO)nc1Sc1ccnc(N)c1Cl (stereo not drawn) + CCn1c(-c2cccnc2C(C)OC)c2c3cc(ccc31)N1CCOC(CC(NC(=O)C(C(C)C)N(C)C(=O)C3(F)CCN(C(=O)C#CC(C)(C)N(C)C)CC3)C(=O)N3CCCC(N3)C(=O)OCC(C)(C)C2)C1	898857-211-R-J1-PDC complex spheroids, growth % test/control	IC50	> 10 µM

Now turn to the next compound.
Under 898857-211-R-J1-PDC complex spheroids, growth % test/control: IC50 value of C=CC(=O)Nc1cc(Nc2nccc(-c3cn(C)c4ccccc34)n2)c(OC)cc1N(C)CCN(C)C + CCn1c(-c2cccnc2C(C)OC)c2c3cc(ccc31)N1CCOC(CC(NC(=O)C(C(C)C)N(C)C(=O)C3(F)CCN(C(=O)C#CC(C)(C)N(C)C)CC3)C(=O)N3CCCC(N3)C(=O)OCC(C)(C)C2)C1 ?
> 1 µM

====

Quick reference: IC50 of the listed items.
System: 898857-211-R-J1-PDC complex spheroids, growth % test/control
Test: Anticancer human tumor 898857-211-R-J1-PDC cell line growth inhibition [RAS];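 note: spheroids exposed to compound for seven days before readout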
Conditions: curve of first compound; second compound 0.316 µM

# annotated cases, reported IC50 shown
compound	IC50
NC1c2ccccc2OC12CCN(c1cnc3c(N4CCCc5ncccc54)n[nH]c3n1)CC2 (configuration not stated) + C=CC(=O)N1CCN(c2nc(OCC3CCCN3C)nc3c(F)c(-c4nc(N)cc(C)c4C(F)(F)F)c(Cl)cc23)C(C)C1	> 10 µM
C=CC(=O)Nc1cc(Nc2nccc(-c3cn(C)c4ccccc34)n2)c(OC)cc1N(C)CCN(C)C + C=CC(=O)N1CCN(c2nc(OCC3CCCN3C)nc3c(F)c(-c4nc(N)cc(C)c4C(F)(F)F)c(Cl)cc23)C(C)C1	> 1 µM
CC(Nc1ccc2c(c1)OCCn1cc(N3C(=O)OCC3C(F)F)nc1-2)C(N)=O (configuration not stated) + C=CC(=O)N1CCN(c2nc(OCC3CCCN3C)nc3c(F)c(-c4nc(N)cc(C)c4C(F)(F)F)c(Cl)cc23)C(C)C1	> 10 µM
CC(Nc1ccc2c(c1)OCCn1cc(N3C(=O)OCC3C(F)F)nc1-2)C(N)=O (configuration not stated) + C#Cc1c(F)ccc2cc(O)cc(-c3ncc4c(N5CC6CCC(C5)N6)nc(OCC56CCCN5CC(F)C6)nc4c3F)c12	> 10 µM
CC(=O)OC12COC1CC(O)C1(C)C(=O)C(O)C3=C(C)C(OC(=O)C(O)C(NC(=O)OC(C)(C)C)c4ccccc4)CC(O)(C(OC(=O)c4ccccc4)C21)C3(C)C (configuration not stated) + C=CC(=O)N1CCN(c2nc(OCC3CCCN3C)nc3c(F)c(-c4nc(N)cc(C)c4C(F)(F)F)c(Cl)cc23)C(C)C1	< 0.0316 µM
C=CC(=O)Nc1cc(Nc2nccc(-c3cn(C)c4ccccc34)n2)c(OC)cc1N(C)CCN(C)C + C#Cc1c(F)ccc2cc(O)cc(-c3ncc4c(N5CC6CCC(C5)N6)nc(OCC56CCCN5CC(F)C6)nc4c3F)c12	> 1 µM

Now turn to the next compound.
Give its IC50 value. Item: O=C(c1ccc(F)c(F)c1Nc1ccc(I)cc1F)N1CC(O)([C@@H]2CCCCN2)C1 + C#Cc1c(F)ccc2cc(O)cc(-c3ncc4c(N5CC6CCC(C5)N6)nc(OCC56CCCN5CC(F)C6)nc4c3F)c12
< 0.00316 µM

====

System: 898857-211-R-J1-PDC complex spheroids, growth % test/control
Assay: Anticancer human tumor 898857-211-R-J1-PDC cell line growth inhibition [RAS];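 note: spheroids exposed to compound for seven days before readout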
Conditions: curve of first compound; second compound 0.0316 µM
pIC50: −log10 of the molar value.
measure.name: pIC50

1. CCc1c2c(nc3ccc(O)cc13)-c1cc3c(c(=O)n1C2)COC(=O)[C@]3(O)CC + C=CC(=O)N1CCN(c2nc(OCC3CCCN3C)nc3c(F)c(-c4nc(N)cc(C)c4C(F)(F)F)c(Cl)cc23)C(C)C1
2. CC(C)n1nc(-c2ccc3oc(N)nc3c2)c2c(N)ncnc21 + C=CC(=O)N1CCN(c2nc(OCC3CCCN3C)nc3c(F)c(-c4nc(N)cc(C)c4C(F)(F)F)c(Cl)cc23)C(C)C1
3. CCN1CCN(Cc2ccc(Nc3ncc(F)c(-c4cc(F)c5nc(C)n(C(C)C)c5c4)n3)nc2)CC1 + C=CC(=O)N1CCN(c2nc(OCC3CCCN3C)nc3c(F)c(-c4nc(N)cc(C)c4C(F)(F)F)c(Cl)cc23)C(C)C1
4. CCC(CC)c1cc(NC2CCC(N)C2)n2nccc2n1 (stereo not drawn) + C=CC(=O)N1CCN(c2nc(OCC3CCCN3C)nc3c(F)c(-c4nc(N)cc(C)c4C(F)(F)F)c(Cl)cc23)C(C)C1
Consider the compounds listed above. Rank them by pIC50 in ascending numerical order. The reply should contain the labels ordered as requested.
4, 3, 2, 1
(4: 5.95, 3: 6.42, 2: 7.57, 1: 8.29)

====

Quick reference: pIC50 of the listed items.
System: 898857-211-R-J1-PDC complex spheroids, growth % test/control
Experiment: Anticancer human tumor 898857-211-R-J1-PDC cell line growth inhibition [RAS];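 note: spheroids exposed to compound for seven days before readout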
Settings: curve of first compound; second compound 0.000949 µM
pIC50: −log10 of the molar value.

# annotated cases, reported pIC50 shown
molecule	pIC50
C=CC(=O)N1CCN(c2nc(OCC3CCCN3C)nc3c(F)c(-c4nc(N)cc(C)c4C(F)(F)F)c(Cl)cc23)C(C)C1 (stereo unspecified) + CCn1c(-c2cc(N3CCN(C)CC3)cnc2C(C)OC)c2c3cc(ccc31)-c1csc(n1)CC(NC(=O)C1CC1C)C(=O)N1CCCC(N1)C(=O)OCC(C)(C)C2	< 6.00
O=C(c1ccc(F)c(F)c1Nc1ccc(I)cc1F)N1CC(O)([C@@H]2CCCCN2)C1 + CCn1c(-c2cc(N3CCN(C)CC3)cnc2C(C)OC)c2c3cc(ccc31)-c1csc(n1)CC(NC(=O)C1CC1C)C(=O)N1CCCC(N1)C(=O)OCC(C)(C)C2	> 8.50
CC(Nc1ccc2c(c1)OCCn1cc(N3C(=O)OCC3C(F)F)nc1-2)C(N)=O (stereo unspecified) + CCn1c(-c2cccnc2C(C)OC)c2c3cc(ccc31)N1CCOC(CC(NC(=O)C(C(C)C)N(C)C(=O)C3(F)CCN(C(=O)C#CC(C)(C)N(C)C)CC3)C(=O)N3CCCC(N3)C(=O)OCC(C)(C)C2)C1	< 5.00
CC(C)NCC(C(=O)N1CCN(c2ncnc3c2C(C)CC3O)CC1)c1ccc(Cl)cc1 (stereo unspecified) + CCn1c(-c2cc(N3CCN(C)CC3)cnc2C(C)OC)c2c3cc(ccc31)-c1csc(n1)CC(NC(=O)C1CC1C)C(=O)N1CCCC(N1)C(=O)OCC(C)(C)C2	< 5.00
CC(=O)OC12COC1CC(O)C1(C)C(=O)C(O)C3=C(C)C(OC(=O)C(O)C(NC(=O)OC(C)(C)C)c4ccccc4)CC(O)(C(OC(=O)c4ccccc4)C21)C3(C)C (stereo unspecified) + CCn1c(-c2cccnc2C(C)OC)c2c3cc(ccc31)N1CCOC(CC(NC(=O)C(C(C)C)N(C)C(=O)C3(F)CCN(C(=O)C#CC(C)(C)N(C)C)CC3)C(=O)N3CCCC(N3)C(=O)OCC(C)(C)C2)C1	> 7.50

Give its pIC50 value. Item: CC(Nc1ccc2c(c1)OCCn1cc(N3C(=O)OCC3C(F)F)nc1-2)C(N)=O (stereo unspecified) + CCn1c(-c2cc(N3CCN(C)CC3)cnc2C(C)OC)c2c3cc(ccc31)-c1csc(n1)CC(NC(=O)C1CC1C)C(=O)N1CCCC(N1)C(=O)OCC(C)(C)C2
< 5.00

====

Test system: 898857-211-R-J1-PDC complex spheroids, growth % test/control
Assay: Anticancer human tumor 898857-211-R-J1-PDC cell line growth inhibition [RAS];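 note: spheroids exposed to compound for seven days before readout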;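 for viability, T/C: 100% = DMSO vehicle control wells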
Conditions: second compound 10 µM; first compound 1 µM; stronger effect = lower value
From the text: RAS pathway inhibitors in Combinations in Complex Spheroids A high-throughput screen of multi-cell type tumor spheroids was designed to identify active combinations of RAS pathway inhibitors and targeted small molecules. Complex spheroids include a stromal component modeled by human endothelial cells (HUVEC) and fibroblasts modeled by human mesenchymal stem cells (MSCs). […] Compounds. […] If the clinical Cmax for an agent had not been determined, the highest concentration tested was 10 microM. […]
Quick reference: viability, T/C of the listed items.
// note: answer is a bare numeric in %

compound	viability, T/C / %
CC1(O)CCCC1n1c(=O)c(C(F)F)cc2cnc(NC3CCN(S(C)(=O)=O)CC3)nc21 (stereo unspecified) + C#Cc1c(F)ccc2cc(O)cc(-c3ncc4c(N5CC6CCC(C5)N6)nc(OCC56CCCN5CC(F)C6)nc4c3F)c12	27.1
CCC(CC)c1cc(NC2CCC(N)C2)n2nccc2n1 (stereo unspecified) + C#Cc1c(F)ccc2cc(O)cc(-c3ncc4c(N5CC6CCC(C5)N6)nc(OCC56CCCN5CC(F)C6)nc4c3F)c12	25.2

Give its viability, T/C value. Item: NC1c2ccccc2OC12CCN(c1cnc3c(N4CCCc5ncccc54)n[nH]c3n1)CC2 (stereo unspecified) + C#Cc1c(F)ccc2cc(O)cc(-c3ncc4c(N5CC6CCC(C5)N6)nc(OCC56CCCN5CC(F)C6)nc4c3F)c12
22.5

Subsequent entry: CC(=O)OC12COC1CC(O)C1(C)C(=O)C(O)C3=C(C)C(OC(=O)C(O)C(NC(=O)OC(C)(C)C)c4ccccc4)CC(O)(C(OC(=O)c4ccccc4)C21)C3(C)C (stereo unspecified) + C#Cc1c(F)ccc2cc(O)cc(-c3ncc4c(N5CC6CCC(C5)N6)nc(OCC56CCCN5CC(F)C6)nc4c3F)c12
9.12

Subsequent entry: C[C@@H](NC(=O)c1ncnc(N)c1Cl)c1ncc(C(=O)Nc2cc(C(F)(F)F)c(Cl)cn2)s1 + C#Cc1c(F)ccc2cc(O)cc(-c3ncc4c(N5CC6CCC(C5)N6)nc(OCC56CCCN5CC(F)C6)nc4c3F)c12
38.5

Subsequent entry: O=C(c1ccc(F)c(F)c1Nc1ccc(I)cc1F)N1CC(O)([C@@H]2CCCCN2)C1 + C#Cc1c(F)ccc2cc(O)cc(-c3ncc4c(N5CC6CCC(C5)N6)nc(OCC56CCCN5CC(F)C6)nc4c3F)c12
5.99
